MIC, S. pullorum C7913 values for the molecules below.
# System: S. pullorum C7913
# Assay type: cell-based
Non-standard residues stand in square brackets, D forms with d. Residues, ends and D or L forms follow the SMILES beside them. 2Nal = N[C@@H](Cc1ccc2ccccc2c1)C(=O)O
OBSERVED_PROPERTY: MIC, S. pullorum C7913 (µM)

molecule="N=C(N)NCCC[C@H](NC(=O)[C@H](Cc1ccc2ccccc2c1)NC(=O)[C@H](Cc1ccc2ccccc2c1)NC(=O)[C@@H](N)Cc1ccc2ccccc2c1)C(=O)N[C@H](CCCNC(=N)N)C(=O)N[C@@H](CCCNC(=N)N)C(=O)N1CCC[C@H]1C(=O)O [Peptide N3] (H-[2Nal][2Nal][2Nal]R[dR]RP-OH)" system="S. pullorum C7913" test_result=16
molecule="N=C(N)NCCC[C@H](NC(=O)[C@H](Cc1ccc2ccccc2c1)NC(=O)[C@H](Cc1ccc2ccccc2c1)NC(=O)[C@H](Cc1ccc2ccccc2c1)NC(=O)[C@H](Cc1ccc2ccccc2c1)NC(=O)[C@H](Cc1ccc2ccccc2c1)NC(=O)[C@@H](N)Cc1ccc2ccccc2c1)C(=O)N[C@H](CCCNC(=N)N)C(=O)N[C@@H](CCCNC(=N)N)C(=O)N1CCC[C@H]1C(=O)O [Peptide N6] (H-[2Nal][2Nal][2Nal][2Nal][2Nal][2Nal]R[dR]RP-OH)" system="S. pullorum C7913" test_result=256
molecule="C[C@H](N)C(=O)N[C@@H](C)C(=O)N[C@@H](C)C(=O)N[C@@H](C)C(=O)N[C@@H](C)C(=O)N[C@@H](C)C(=O)N[C@H](CCCNC(=N)N)C(=O)N[C@@H](CCCNC(=N)N)C(=O)N[C@@H](CCCNC(=N)N)C(=O)N1CCC[C@H]1C(=O)O [Peptide A6] (H-AAAAAA[dR]RRP-OH)" system="S. pullorum C7913" test_result=256
molecule="C[C@H](N)C(=O)N[C@@H](C)C(=O)N[C@@H](C)C(=O)N[C@@H](C)C(=O)N[C@H](CCCNC(=N)N)C(=O)N[C@@H](CCCNC(=N)N)C(=O)N[C@@H](CCCNC(=N)N)C(=O)N1CCC[C@H]1C(=O)O [Peptide A4] (H-AAAA[dR]RRP-OH)" system="S. pullorum C7913" test_result=256
